Listed next: entries and their corresponding protein stability index.
Tested on: Saccharomyces cerevisiae;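 also: PSI is a weighted mean of sequencing reads over stability bins, variants kept only with over 10 reads, mCherry proximal and sfGFP distal, peptide attached via GGGS linker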
Experiment: protein stability index of tFT-peptide fusion (C-terminal peptide) (PSI (0-1 scale)); higher = more stable (slower turnover)
Details: genetic background: wild type; temperature: 30 C
PROPERTY MEASURED: protein stability index

{"ENTRY SEQUENCE": "LLVLSTVFNYPI", "OBS VALUE": 0.655}
{"ENTRY SEQUENCE": "IQAGHLYPESLV", "OBS VALUE": 0.708}
{"ENTRY SEQUENCE": "PAPPHPRHPPPP", "OBS VALUE": 0.649}
{"ENTRY SEQUENCE": "SIIIRVTQSGSG", "OBS VALUE": 0.641}
{"ENTRY SEQUENCE": "SNHYYFILSHFA", "OBS VALUE": 0.661}
{"ENTRY SEQUENCE": "IGLFWSGFFYGV", "OBS VALUE": 0.743}
{"ENTRY SEQUENCE": "SYRFFLFLAVFV", "OBS VALUE": 0.461}
{"ENTRY SEQUENCE": "PPPFLTPPPPHS", "OBS VALUE": 0.709}
{"ENTRY SEQUENCE": "DDWNLQEAQSLY", "OBS VALUE": 0.703}
{"ENTRY SEQUENCE": "RRNPTCPSGTQK", "OBS VALUE": 0.7}
{"ENTRY SEQUENCE": "RMRRAHCQQSGG", "OBS VALUE": 0.654}
{"ENTRY SEQUENCE": "PSFLAIRVCLLV", "OBS VALUE": 0.133}
{"ENTRY SEQUENCE": "ACEAERRTFRWV", "OBS VALUE": 0.66}
{"ENTRY SEQUENCE": "IIGCIAICLMVN", "OBS VALUE": 0.0843}
{"ENTRY SEQUENCE": "GEKKKAILGKRK", "OBS VALUE": 0.62}
{"ENTRY SEQUENCE": "RELLYLPPPSDP", "OBS VALUE": 0.821}
{"ENTRY SEQUENCE": "YREVGGVAERRR", "OBS VALUE": 0.695}
{"ENTRY SEQUENCE": "PPPPPLPPLPTP", "OBS VALUE": 0.693}
{"ENTRY SEQUENCE": "ISILPDSIGQGA", "OBS VALUE": 0.687}
{"ENTRY SEQUENCE": "ISVAHIPPVYHS", "OBS VALUE": 0.643}
{"ENTRY SEQUENCE": "KEYNIKNEREEK", "OBS VALUE": 0.716}
{"ENTRY SEQUENCE": "PSLLSSPPPPLL", "OBS VALUE": 0.737}
{"ENTRY SEQUENCE": "IVLGGPAWPVAA", "OBS VALUE": 0.613}
{"ENTRY SEQUENCE": "GKVCVLKLSPWI", "OBS VALUE": 0.814}
{"ENTRY SEQUENCE": "GCGEGVGASVGR", "OBS VALUE": 0.641}
{"ENTRY SEQUENCE": "VGGVAGSFIFSC", "OBS VALUE": 0.759}
{"ENTRY SEQUENCE": "GGRCGSVGRGGA", "OBS VALUE": 0.735}
{"ENTRY SEQUENCE": "IKIQPKKRISLI", "OBS VALUE": 0.299}
{"ENTRY SEQUENCE": "RGPVSQNPEINF", "OBS VALUE": 0.732}
{"ENTRY SEQUENCE": "CLESKTGYEVMG", "OBS VALUE": 0.706}
{"ENTRY SEQUENCE": "PLALRPPFSHGL", "OBS VALUE": 0.698}
{"ENTRY SEQUENCE": "SLCCPLHQTRFR", "OBS VALUE": 0.684}
{"ENTRY SEQUENCE": "GRTEMNRIETTS", "OBS VALUE": 0.699}
{"ENTRY SEQUENCE": "PFPSPPSPPSPL", "OBS VALUE": 0.817}
{"ENTRY SEQUENCE": "PRPRTQPHPGPG", "OBS VALUE": 0.711}
{"ENTRY SEQUENCE": "DLTRALQAGHDR", "OBS VALUE": 0.695}
{"ENTRY SEQUENCE": "SGGCGWGAGVRV", "OBS VALUE": 0.778}
{"ENTRY SEQUENCE": "MPRRLSLNLDYL", "OBS VALUE": 0.656}
{"ENTRY SEQUENCE": "NKKKKQRMKRNG", "OBS VALUE": 0.719}
{"ENTRY SEQUENCE": "LRSHKIVDQDPF", "OBS VALUE": 0.724}
{"ENTRY SEQUENCE": "PTHPHLTLTETP", "OBS VALUE": 0.687}
{"ENTRY SEQUENCE": "NMRQGPLAGLAG", "OBS VALUE": 0.748}
{"ENTRY SEQUENCE": "GVGMWCSRLRVG", "OBS VALUE": 0.595}
{"ENTRY SEQUENCE": "LLRRSNLLHLVL", "OBS VALUE": 0.574}
{"ENTRY SEQUENCE": "SLRLFSPILSSL", "OBS VALUE": 0.684}
{"ENTRY SEQUENCE": "GAIRLSLMLLPQ", "OBS VALUE": 0.686}
{"ENTRY SEQUENCE": "ERERREGEGKRQ", "OBS VALUE": 0.721}
{"ENTRY SEQUENCE": "KKKQKKERKKTK", "OBS VALUE": 0.649}
{"ENTRY SEQUENCE": "RPLPLRLDGSGS", "OBS VALUE": 0.719}
{"ENTRY SEQUENCE": "GRKKTSAGGNQE", "OBS VALUE": 0.702}
{"ENTRY SEQUENCE": "FPASPQAPPPLP", "OBS VALUE": 0.654}
{"ENTRY SEQUENCE": "GGGRRRVAGREL", "OBS VALUE": 0.701}
{"ENTRY SEQUENCE": "ETEGSSSLGTRI", "OBS VALUE": 0.661}
{"ENTRY SEQUENCE": "PPPPRPPHLSPP", "OBS VALUE": 0.701}
{"ENTRY SEQUENCE": "PPPPPRLPPRPP", "OBS VALUE": 0.615}
{"ENTRY SEQUENCE": "KKKRKKKNRGKK", "OBS VALUE": 0.679}
{"ENTRY SEQUENCE": "VQLFCLRREMII", "OBS VALUE": 0.381}
{"ENTRY SEQUENCE": "FPCRSPKLYPPL", "OBS VALUE": 0.655}
{"ENTRY SEQUENCE": "RCFLFSPCWAFS", "OBS VALUE": 0.589}
{"ENTRY SEQUENCE": "PSELLPQLPSRW", "OBS VALUE": 0.702}
{"ENTRY SEQUENCE": "WESWGPDWLCVG", "OBS VALUE": 0.769}
{"ENTRY SEQUENCE": "WGRQSERILRST", "OBS VALUE": 0.606}
{"ENTRY SEQUENCE": "GTALERMWLEIE", "OBS VALUE": 0.739}
{"ENTRY SEQUENCE": "SLFSFLPRLYSH", "OBS VALUE": 0.627}
{"ENTRY SEQUENCE": "EKGAEGDHGEVR", "OBS VALUE": 0.678}
{"ENTRY SEQUENCE": "AGWPAGARARAP", "OBS VALUE": 0.712}
{"ENTRY SEQUENCE": "CYMFFNPSFNRR", "OBS VALUE": 0.712}
